FYI, the data here is from ChEMBL document CHEMBL5104176.

study target: D(4) dopamine receptor (Homo sapiens)
Sequence (P21917 whole entry): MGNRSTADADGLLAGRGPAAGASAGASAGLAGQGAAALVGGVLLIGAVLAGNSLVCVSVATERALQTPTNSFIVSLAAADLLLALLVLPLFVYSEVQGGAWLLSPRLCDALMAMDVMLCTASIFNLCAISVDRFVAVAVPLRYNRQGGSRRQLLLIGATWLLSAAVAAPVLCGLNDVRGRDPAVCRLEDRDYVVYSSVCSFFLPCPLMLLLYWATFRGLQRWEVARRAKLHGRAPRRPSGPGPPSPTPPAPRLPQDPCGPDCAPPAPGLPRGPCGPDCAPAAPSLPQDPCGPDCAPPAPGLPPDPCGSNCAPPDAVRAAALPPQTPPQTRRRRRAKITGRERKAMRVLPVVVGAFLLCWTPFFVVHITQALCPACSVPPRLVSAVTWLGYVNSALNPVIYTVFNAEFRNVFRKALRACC
procedure details: Displacement of [3H]N-methylspiperone from human D4.4 receptor expressed in HEK293T cell membrane incubated for 1 hr by MicroBeta scintillation counting method
Type: cell membranes
measurement label: pKi
Reminder that pKi is minus the log10 of a molar concentration.

Form entry - test system: D(4) dopamine receptor (Homo sapiens); read-out: pKi; molecule: Cc1cccc(N2CCN(CCCN3C(=O)CCc4ccccc43)CC2)c1
8.75

Form entry - test system: D(4) dopamine receptor (Homo sapiens); read-out: pKi; molecule: O=C1CCc2ccccc2N1CCCN1CCN(c2ccc([N+](=O)[O-])cc2)CC1
8.18

Form entry - test system: D(4) dopamine receptor (Homo sapiens); read-out: pKi; molecule: O=C1CCc2ccccc2N1CCCN1CCN(c2ccccc2Cl)CC1
9.22

Form entry - test system: D(4) dopamine receptor (Homo sapiens); read-out: pKi; molecule: COc1cccc(N2CCN(CCCN3C(=O)CCc4ccccc43)CC2)c1
8.38

Form entry - test system: D(4) dopamine receptor (Homo sapiens); read-out: pKi; molecule: O=C1CCc2ccccc2N1CCCCCN1CCN(c2ccccc2)CC1
7.63

Form entry - test system: D(4) dopamine receptor (Homo sapiens); read-out: pKi; molecule: c1ccc(N2CCN(CCCc3nc4ccccc4o3)CC2)cc1
7.43

Form entry - test system: D(4) dopamine receptor (Homo sapiens); read-out: pKi; molecule: O=C1CCc2ccccc2N1CCCN1CCN(c2ccc(Cl)c(Cl)c2)CC1
9.06

Form entry - test system: D(4) dopamine receptor (Homo sapiens); read-out: pKi; molecule: c1ccc(N2CCN(CCCn3cnc4ccccc43)CC2)cc1
7.91

Form entry - test system: D(4) dopamine receptor (Homo sapiens); read-out: pKi; molecule: Cc1ccccc1N1CCN(CCCN2C(=O)CCc3ccccc32)CC1
8.87

Form entry - test system: D(4) dopamine receptor (Homo sapiens); read-out: pKi; molecule: c1ccc(N2CCN(CCCn3ccc4ccccc43)CC2)cc1
8.72

Form entry - test system: D(4) dopamine receptor (Homo sapiens); read-out: pKi; molecule: O=C1CCc2ccccc2N1CCCN1CCN(c2cccc(Cl)c2Cl)CC1
9.16

Form entry - test system: D(4) dopamine receptor (Homo sapiens); read-out: pKi; molecule: O=C1CCc2ccccc2N1CCCN1CCN(c2cccc(Cl)c2)CC1
8.98

Form entry - test system: D(4) dopamine receptor (Homo sapiens); read-out: pKi; molecule: Cc1ccc(N2CCN(CCCN3C(=O)CCc4ccccc43)CC2)cc1
9.01

Form entry - test system: D(4) dopamine receptor (Homo sapiens); read-out: pKi; molecule: COc1ccc(N2CCN(CCCN3C(=O)CCc4ccccc43)CC2)cc1
8.16

Form entry - test system: D(4) dopamine receptor (Homo sapiens); read-out: pKi; molecule: c1ccc(N2CCN(CCCc3nc4ccccc4[nH]3)CC2)cc1
7.52

Form entry - test system: D(4) dopamine receptor (Homo sapiens); read-out: pKi; molecule: O=C1CCc2ccccc2N1CCCN1CCN(c2ccccn2)CC1
8.65

Form entry - test system: D(4) dopamine receptor (Homo sapiens); read-out: pKi; molecule: O=C1CCc2ccccc2N1CCCN1CCN(c2ccccc2[N+](=O)[O-])CC1
9.39

Form entry - test system: D(4) dopamine receptor (Homo sapiens); read-out: pKi; molecule: O=C1CCc2ccccc2N1CCCN1CCN(c2ncccn2)CC1
8.35

Form entry - test system: D(4) dopamine receptor (Homo sapiens); read-out: pKi; molecule: O=C1CCc2ccccc2N1CCCCN1CCN(c2ccccc2)CC1
8.37

Form entry - test system: D(4) dopamine receptor (Homo sapiens); read-out: pKi; molecule: c1ccc(N2CCN(CCCc3nc4ccccc4s3)CC2)cc1
7.99

Form entry - test system: D(4) dopamine receptor (Homo sapiens); read-out: pKi; molecule: N#Cc1ccccc1N1CCN(CCCN2C(=O)CCc3ccccc32)CC1
8.97
